# MEASUREMENT_TARGET: Protein kinase C zeta type (Homo sapiens, UniProt Q05513); note: in the data inactive means no Kd found up to 30 µM
# Sequence (Q05513 whole entry): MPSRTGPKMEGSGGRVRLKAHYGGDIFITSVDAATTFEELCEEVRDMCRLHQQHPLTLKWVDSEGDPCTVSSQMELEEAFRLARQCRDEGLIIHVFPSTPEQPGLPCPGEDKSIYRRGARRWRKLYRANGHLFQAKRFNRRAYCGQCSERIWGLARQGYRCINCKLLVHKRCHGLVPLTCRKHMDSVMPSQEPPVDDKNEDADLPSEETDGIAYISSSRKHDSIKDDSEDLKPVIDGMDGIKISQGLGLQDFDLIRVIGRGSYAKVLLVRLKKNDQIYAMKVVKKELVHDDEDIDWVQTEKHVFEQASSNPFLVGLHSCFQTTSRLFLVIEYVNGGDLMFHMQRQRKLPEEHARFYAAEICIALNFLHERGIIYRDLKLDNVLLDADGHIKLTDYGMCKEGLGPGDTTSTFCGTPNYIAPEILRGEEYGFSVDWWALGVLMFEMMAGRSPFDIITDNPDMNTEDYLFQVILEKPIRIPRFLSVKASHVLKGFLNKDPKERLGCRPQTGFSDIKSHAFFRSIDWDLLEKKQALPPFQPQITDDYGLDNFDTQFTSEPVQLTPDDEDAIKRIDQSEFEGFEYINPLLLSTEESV
Active and inactive are the calls of the source.
READOUT_NAME: Kd

{"COMPOUND": "CNC(=O)c1ccccc1Sc1ccc2c(/C=C/c3ccccn3)n[nH]c2c1", "MEASURED_VALUE": "> 30 µM (inactive)"}
{"COMPOUND": "C=CC(=O)Nc1cc2c(Nc3ccc(F)c(Cl)c3)ncnc2cc1C#CC(C)(C)N1CCN(C)CC1 [AV-412 FREE BASE]", "MEASURED_VALUE": "> 30 µM (inactive)"}
{"COMPOUND": "O=C(Cc1ccc(-c2ccc(OCCN3CCOCC3)cc2)cn1)NCc1ccccc1", "MEASURED_VALUE": "> 30 µM (inactive)"}
{"COMPOUND": "CO[C@H]1C[C@@H]2CC[C@@H](C)[C@@](O)(O2)C(=O)C(=O)N2CCCC[C@H]2C(=O)O[C@H]([C@H](C)C[C@@H]2CC[C@@H](O)[C@H](OC)C2)CC(=O)[C@H](C)/C=C(\\C)[C@@H](O)[C@@H](OC)C(=O)[C@H](C)C[C@H](C)/C=C/C=C/C=C/1C", "MEASURED_VALUE": "> 30 µM (inactive)"}
{"COMPOUND": "Cc1nc(Nc2n[nH]c3c2CN(C(=O)N[C@H](CN(C)C)c2ccccc2)C3(C)C)c2sccc2n1", "MEASURED_VALUE": "> 30 µM (inactive)"}
{"COMPOUND": "C#Cc1cccc(Nc2ncnc3cc(OC)c(OCCCCCCC(=O)NO)cc23)c1", "MEASURED_VALUE": "> 30 µM (inactive)"}
{"COMPOUND": "COc1cc2ncnc(Oc3cccc(NC(=O)Nc4cc(C(C)(C)C(F)(F)F)on4)c3)c2cc1OC", "MEASURED_VALUE": "> 30 µM (inactive)"}

Origin of measurements: ChEMBL document CHEMBL3991601
